Target: L-CPT1 (human liver CPT1) (Homo sapiens)
Sequence (P50416 whole entry): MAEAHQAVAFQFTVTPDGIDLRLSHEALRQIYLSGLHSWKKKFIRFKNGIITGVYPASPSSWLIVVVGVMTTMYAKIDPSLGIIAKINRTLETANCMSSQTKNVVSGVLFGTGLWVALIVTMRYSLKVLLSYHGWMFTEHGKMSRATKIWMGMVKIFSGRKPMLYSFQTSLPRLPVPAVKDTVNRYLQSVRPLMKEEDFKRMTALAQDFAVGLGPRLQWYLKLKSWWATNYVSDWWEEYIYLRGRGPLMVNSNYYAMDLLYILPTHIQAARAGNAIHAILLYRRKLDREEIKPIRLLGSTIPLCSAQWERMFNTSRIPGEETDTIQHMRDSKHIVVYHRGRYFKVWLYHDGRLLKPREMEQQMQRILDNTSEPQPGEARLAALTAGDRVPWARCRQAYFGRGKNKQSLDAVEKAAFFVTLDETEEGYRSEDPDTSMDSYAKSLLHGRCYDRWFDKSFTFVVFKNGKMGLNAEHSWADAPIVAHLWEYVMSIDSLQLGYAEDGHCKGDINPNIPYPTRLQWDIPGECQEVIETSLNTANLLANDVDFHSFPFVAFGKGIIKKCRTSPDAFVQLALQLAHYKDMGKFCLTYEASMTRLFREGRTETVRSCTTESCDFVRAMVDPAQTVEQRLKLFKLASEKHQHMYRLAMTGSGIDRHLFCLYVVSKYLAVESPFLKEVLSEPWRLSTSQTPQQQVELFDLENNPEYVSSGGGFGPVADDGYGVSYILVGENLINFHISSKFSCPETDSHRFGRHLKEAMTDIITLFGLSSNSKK
Experiment: L-CPT1 inhibition, spectrophotometric CPT activity assay with DTNB (Ellman's reagent)
Settings: cell-free extracts of P. pastoris expressing human liver CPT1; carnitine 500 μM, palmitoyl-CoA 80 μM, DTNB 300 μM, pH 7.4
Rule for this label: rule met means IC50 is less than 60 nM; rule not met means IC50 is at least 60 nM.

COc1ccc(Cl)cc1S(=O)(=O)N1CC(C(=O)O)Oc2ccc(C(=O)Nc3cccc(F)c3)cc21 (centres unmarked) = rule met
O=C(O)Cc1csc(NC(=O)c2ccc3c(c2)N(S(=O)(=O)c2cccc(Cl)c2)CCO3)n1 = rule met
COc1ccc(Cl)cc1S(=O)(=O)N1COCc2ccc(C(=O)Nc3ccc(C(=O)O)cc3)cc21 = rule met
COc1ccc(Cl)cc1S(=O)(=O)N1CCOc2ccc(C(=O)Nc3ccc(C(=O)O)c(F)c3)cc21 = rule not met
COc1ccc(Cl)cc1S(=O)(=O)N1COc2ccc(C(=O)Nc3ccc(C(=O)O)c(F)c3)cc21 = rule not met
